experiment description: Plasma pharmacokinetics after single oral dose of Δ8-THCV in MCT oil (LC-MS/MS, non-compartmental analysis)
Type: in vivo, human
study conditions: human, plasma, oral, 12.5 mg, 8 h; 12.5 mg Δ8-THCV dose; Mean (SD, %CV)
For each entry below, report its concentration at 8 h value.
Put down the number, then write its unit next to it.

CCCc1cc(O)c2c(c1)OC(C)(C)[C@@H]1CCC(C)=C[C@@H]21 [Δ9-THCV, Δ9-tetrahydrocannabivarin]	0 ng/mL
CCCc1cc(O)c2c(c1)OC(C)(C)[C@@H]1CCC(C(=O)O)=C[C@@H]21	1.2 ng/mL
CCCc1cc(O)c2c(c1)OC(C)(C)[C@@H]1CC=C(C)C[C@@H]21 [Δ8-THCV, Δ8-tetrahydrocannabivarin]	0.2 ng/mL
CCCc1cc(O)c2c(c1)OC(C)(C)[C@@H]1CC=C(C(=O)O)C[C@@H]21	46.8 ng/mL

List the reported concentration at 8 h of each compound below.
1. CCCc1cc(O)c2c(c1)OC(C)(C)[C@@H]1CC=C(CO)C[C@@H]21 (racemic) [11-OH-Δ8-THCV, (±)-11-hydroxy-Δ8-THCV]
2. CCCCCc1cc(O)c2c(c1)OC(C)(C)[C@@H]1CC=C(C(=O)O)CC21 (single isomer, unassigned; (+)) [Δ8-THC-COOH, (+)-11-nor-Δ8-THC-9-carboxylic acid]

Result ::
0 ng/mL
0 ng/mL

###

experiment description: Plasma pharmacokinetics after single oral dose of Δ8-THCV in MCT oil (LC-MS/MS, non-compartmental analysis)
Format: in vivo, human
study conditions: human, plasma, oral, 12.5 mg, 0.5 h; 12.5 mg Δ8-THCV dose; Mean (SD, %CV)
property name: concentration at 0.5 h
Answer with the value and then the unit.

Study these solved cases before continuing.
CCCc1cc(O)c2c(c1)OC(C)(C)[C@@H]1CCC(C(=O)O)=C[C@@H]21	0 ng/mL
CCCc1cc(O)c2c(c1)OC(C)(C)[C@@H]1CCC(C)=C[C@@H]21 [Δ9-THCV, Δ9-tetrahydrocannabivarin]	0 ng/mL
CCCc1cc(O)c2c(c1)OC(C)(C)[C@@H]1CC=C(C(=O)O)C[C@@H]21	0.4 ng/mL
CCCCCc1cc(O)c2c(c1)OC(C)(C)[C@@H]1CC=C(C(=O)O)CC21 (single isomer, unassigned; (+)) [Δ8-THC-COOH, (+)-11-nor-Δ8-THC-9-carboxylic acid]	0 ng/mL

// for each compound in input: emit concentration at 0.5 h
1. CCCc1cc(O)c2c(c1)OC(C)(C)[C@@H]1CC=C(C)C[C@@H]21 [Δ8-THCV, Δ8-tetrahydrocannabivarin]
2. CCCc1cc(O)c2c(c1)OC(C)(C)[C@@H]1CC=C(CO)C[C@@H]21 (racemic) [11-OH-Δ8-THCV, (±)-11-hydroxy-Δ8-THCV]

Result ::
1. 0 ng/mL
2. 0 ng/mL

###

experiment description: Plasma pharmacokinetics after single oral dose of Δ8-THCV in MCT oil (LC-MS/MS, non-compartmental analysis)
Type: in vivo, human
study conditions: human, plasma, po, 200 mg, 200 mg single oral Δ8-THCV in MCT oil; plasma; Mean (±SD); read-out: tmax
Kindly state Tmax for each of the entries shown.
One number for each entry, in h.

Recorded results for 5 molecules are shown here.
CCCc1cc(O)c2c(c1)OC(C)(C)[C@@H]1CC=C(CO)C[C@@H]21 (racemic) [11-OH-Δ8-THCV, (±)-11-hydroxy-Δ8-THCV]	4.7
CCCc1cc(O)c2c(c1)OC(C)(C)[C@@H]1CC=C(C(=O)O)C[C@@H]21	5.3
CCCc1cc(O)c2c(c1)OC(C)(C)[C@@H]1CCC(C(=O)O)=C[C@@H]21	5.3
CCCc1cc(O)c2c(c1)OC(C)(C)[C@@H]1CC=C(C)C[C@@H]21 [Δ8-THCV, Δ8-tetrahydrocannabivarin]	4.7
CCCc1cc(O)c2c(c1)OC(C)(C)[C@@H]1CCC(C)=C[C@@H]21 [Δ9-THCV, Δ9-tetrahydrocannabivarin]	4.9

Next up:
Query :: Which measured Tmax value corresponds to CCCCCc1cc(O)c2c(c1)OC(C)(C)[C@@H]1CC=C(C(=O)O)CC21 (single isomer, unassigned; (+)) [Δ8-THC-COOH, (+)-11-nor-Δ8-THC-9-carboxylic acid] ?
Result :: 6.1

###

experiment description: Plasma pharmacokinetics after single oral dose of Δ8-THCV in MCT oil (LC-MS/MS, non-compartmental analysis)
Type: in vivo, human
Design: unit not given here
study conditions: 12.5 mg single oral Δ8-THCV in MCT oil; plasma; Median (Range)
Please respond with reported Clast (last quantifiable concentration) for every item in the list.

Solved entries (count: 3):
CCCc1cc(O)c2c(c1)OC(C)(C)[C@@H]1CC=C(CO)C[C@@H]21 (racemic) [11-OH-Δ8-THCV, (±)-11-hydroxy-Δ8-THCV]	0.8 (0.6–1.1)
CCCc1cc(O)c2c(c1)OC(C)(C)[C@@H]1CC=C(C)C[C@@H]21 [Δ8-THCV, Δ8-tetrahydrocannabivarin]	0.7 (0.6–1.5)
CCCc1cc(O)c2c(c1)OC(C)(C)[C@@H]1CC=C(C(=O)O)C[C@@H]21 [Δ8-THCV-COOH, 11-nor-9-carboxy-Δ8-THCV]	38.2 (20.1–102)

Lab note: next molecule to report on.
Query :: What value of measured Clast (last quantifiable concentration) is listed for CCCc1cc(O)c2c(c1)OC(C)(C)[C@@H]1CCC(C(=O)O)=C[C@@H]21 [Δ9-THCV-COOH, 11-nor-9-carboxy-Δ9-THCV] ?
Result :: 1.7 (1.1–3.3)

###

experiment description: Plasma pharmacokinetics after single oral dose of Δ8-THCV in MCT oil (LC-MS/MS, non-compartmental analysis)
Type: in vivo, human
study conditions: human, plasma, po, 100 mg, 100 mg single oral Δ8-THCV in MCT oil; plasma; Median (Range); read-out: MRT (mean residence time)
property name: MRT (h)
Numbers only, in h.

Example compounds with recorded MRT:
CCCc1cc(O)c2c(c1)OC(C)(C)[C@@H]1CCC(C)=C[C@@H]21 [Δ9-THCV, Δ9-tetrahydrocannabivarin]	4.4
CCCc1cc(O)c2c(c1)OC(C)(C)[C@@H]1CC=C(C(=O)O)C[C@@H]21	4.6
CCCc1cc(O)c2c(c1)OC(C)(C)[C@@H]1CC=C(CO)C[C@@H]21 (racemic) [11-OH-Δ8-THCV, (±)-11-hydroxy-Δ8-THCV]	4.3
CCCCCc1cc(O)c2c(c1)OC(C)(C)[C@@H]1CC=C(C(=O)O)CC21 (single isomer, unassigned; (+)) [Δ8-THC-COOH, (+)-11-nor-Δ8-THC-9-carboxylic acid]	5.3
CCCc1cc(O)c2c(c1)OC(C)(C)[C@@H]1CC=C(C)C[C@@H]21 [Δ8-THCV, Δ8-tetrahydrocannabivarin]	4.1

Consider the additional compound presented here.
Query :: If you can, please state the reported MRT value of "CCCc1cc(O)c2c(c1)OC(C)(C)[C@@H]1CCC(C(=O)O)=C[C@@H]21" .
Result :: 4.6

###

experiment description: Plasma pharmacokinetics after single oral dose of Δ8-THCV in MCT oil (LC-MS/MS, non-compartmental analysis)
Format: in vivo, human
study conditions: 25 mg single oral Δ8-THCV in MCT oil; plasma; Median (Range)
property name: tlast (time to last quantifiable concentration)

Would you please look over these solved cases?
CCCc1cc(O)c2c(c1)OC(C)(C)[C@@H]1CC=C(CO)C[C@@H]21 (racemic) [11-OH-Δ8-THCV, (±)-11-hydroxy-Δ8-THCV]	4 (2–6)
CCCc1cc(O)c2c(c1)OC(C)(C)[C@@H]1CCC(C(=O)O)=C[C@@H]21	8 (4–8)
CCCc1cc(O)c2c(c1)OC(C)(C)[C@@H]1CC=C(C(=O)O)C[C@@H]21	8 (8–8)

Query :: What measured tlast (time to last quantifiable concentration) goes with CCCc1cc(O)c2c(c1)OC(C)(C)[C@@H]1CC=C(C)C[C@@H]21 [Δ8-THCV, Δ8-tetrahydrocannabivarin] ?
Result :: 7 (4–8)

###

experiment description: Plasma pharmacokinetics after single oral dose of Δ8-THCV in MCT oil (LC-MS/MS, non-compartmental analysis)
Assay type: in vivo, human
study conditions: human, plasma, oral, 50 mg, 4 h; 50 mg Δ8-THCV dose; Median (IQ Range)
property name: concentration at 4 h (ng/mL)
Answers are plain numbers, in ng/mL.

Working through the 4 compounds below one at a time, give concentration at 4 h for each.
1. CCCc1cc(O)c2c(c1)OC(C)(C)[C@@H]1CCC(C)=C[C@@H]21 [Δ9-THCV, Δ9-tetrahydrocannabivarin]
2. CCCc1cc(O)c2c(c1)OC(C)(C)[C@@H]1CC=C(C(=O)O)C[C@@H]21
3. CCCCCc1cc(O)c2c(c1)OC(C)(C)[C@@H]1CC=C(C(=O)O)CC21 (single isomer, unassigned; (+)) [Δ8-THC-COOH, (+)-11-nor-Δ8-THC-9-carboxylic acid]
4. CCCc1cc(O)c2c(c1)OC(C)(C)[C@@H]1CC=C(C)C[C@@H]21 [Δ8-THCV, Δ8-tetrahydrocannabivarin]

Result ::
1: 0; 2: 177; 3: 0; 4: 2.4

Hey, quick one: what's concentration at 4 h for each of these?
1. CCCc1cc(O)c2c(c1)OC(C)(C)[C@@H]1CCC(C(=O)O)=C[C@@H]21
2. CCCc1cc(O)c2c(c1)OC(C)(C)[C@@H]1CC=C(CO)C[C@@H]21 (racemic) [11-OH-Δ8-THCV, (±)-11-hydroxy-Δ8-THCV]

Result ::
5
0

Reference source for all entries: paper PMC11676667
